Recorded Activity Relative to Resmethrin = 100, Tribolium values for a group of compounds are listed next.
- System: Tribolium castaneum
- assay.method.text: Topical activity against Tribolium castaneum (knockdown after 48 hours, LD50, relative to Resmethrin)
- Format: in vivo
- experimental.parameters: Tribolium castaneum adults, from LD50
- Experimental: The insecticidal activities of the compounds of the Examples has been shown by the following tests in four species of insects, namely Aedes aegypti, Musca domestica, Blattella germanica, and Tribolium castaneum. A 1 μl drop of a solution of test compound in AR acetone was applied topically to adult insects. Knockdown was recorded after 48 hours. […] The results are all expressed as activities relative to the activity of Resmathrin (assigned activity=100), determined by the methods described. […]
Enter the number alone.

compound: CC(C)C(C(=O)OC(C#N)c1cccc(Oc2ccccc2)c1)c1ccc2c(c1)CCO2 (centres unmarked)
result.value: 159
--
compound: CC(C)C(C(=O)OC(C#N)c1cccc(Oc2ccccc2)c1)c1ccc(Cl)c2occc12 (centres unmarked)
result.value: 100

Give the reported Activity Relative to Resmethrin = 100, Tribolium for this compound. CC(C)C(C(=O)OCc1cccc(Oc2ccccc2)c1)c1cccc2occc12 (centres unmarked)
50

Tell me its Activity Relative to Resmethrin = 100, Tribolium given CC(C)C(C(=O)OC(C#N)c1cccc(Oc2ccccc2)c1)c1ccc2c(Cl)coc2c1 (centres unmarked) as the entry.
411

Write down Activity Relative to Resmethrin = 100, Tribolium measured for item Cc1oc2cc(C(C(=O)OCc3cccc(Oc4ccccc4)c3)C(C)C)ccc2c1C (centres unmarked)
4.7

Specify reported Activity Relative to Resmethrin = 100, Tribolium for the compound shown: CC(C)C(C(=O)OC(C#N)c1cccc(Oc2ccccc2)c1)c1ccc2occc2c1 (centres unmarked)
389

Let me know recorded Activity Relative to Resmethrin = 100, Tribolium for CC(C)C(C(=O)OCc1cccc(Oc2ccccc2)c1)c1ccc2c(Cl)coc2c1 (centres unmarked) , thanks.
80.4

Find the measured Activity Relative to Resmethrin = 100, Tribolium of CC(C)C(C(=O)OC(C#N)c1cccc(Oc2ccccc2)c1)c1ccc2ccoc2c1 (centres unmarked) and report it.
583
